Assay: Solubility in water according to DAB 10
Type: physicochemical
Details: equivalent of the DAB 10 parts
Where a SMILES comes first, the peptide text is derived from it. [ ]: non-standard residue; d: D form. dPhe(4-Cl) = N[C@H](Cc1ccc(Cl)cc1)C(=O)O; d2Nal = N[C@H](Cc1ccc2ccccc2c1)C(=O)O; dCit = NC(=O)NCCC[C@@H](N)C(=O)O; d3Pal = N[C@H](Cc1cccnc1)C(=O)O
endpoint: solubility (µg/mL)
Give bare numbers, in µg/mL.

// query Input CC(=O)N[C@H](Cc1ccc2ccccc2c1)C(=O)N[C@H](Cc1ccc(Cl)cc1)C(=O)N[C@H](Cc1cccnc1)C(=O)N[C@@H](CO)C(=O)N[C@@H](Cc1ccc(O)cc1)C(=O)N[C@H](CCCNC(N)=O)C(=O)N[C@@H](CC(C)C)C(=O)N[C@@H](CCCNC(=N)N)C(=O)N1CCC[C@H]1C(=O)N[C@H](C)C(N)=O [Cetrorelix acetate] (Ac-[d2Nal][dPhe(4-Cl)][d3Pal]SY[dCit]LRP[dA]-NH2) , output reported solubility.
// result 1000
